# key: entry, value: melting point
measuredEndpoint: melting point (°C)

O=C(O)Cc1ccc(Cl)c(Cl)c1 = 90
FC(Cl)C(F)(F)C(F)(F)Cl (configuration not stated) = -97
COc1ccc(C(=O)CBr)c(OC)c1 = 104
BrC(Br)=C(Br)Br = 56.5

###

Reported melting point values are given for each entry in this list.
measuredEndpoint: melting point (°C)

Cc1c(C)c(Br)c2ccccc2c1Br = 164
CCC(C)(C#N)N=NC(C)(C#N)CC (stereo not given) = 50
CC(C)OC(=O)OOC(=O)OC(C)C = 10

###

// values below are reported melting point
measuredEndpoint: melting point

CC(=O)c1ccc(Oc2ccccc2)cc1 = 52 to 54 °C
O=[N+]([O-])c1ccc(N2CCCNCC2)nc1 = 111 to 112 °C
CC(=O)c1cc2c(cc1Br)OCCCO2 = 56 to 58 °C
O=Cc1ccc(C=CC(=O)O)cc1 = 250 to 255 °C
OCC12CC3CC(CC(C3)C1)C2 = 140 °C

Data origin: a melting point compilation (Tetko et al.)
